B1: Prp16p (wild type), LexA-bait fusion [budding yeast] / Brr2 H2-Sec63-2p (wild type), Gal4AD-prey fusion [budding yeast] (parent complex)
chain 1: MGHSGREERIKDIFKELTSKELTPGLLLTLQKLAQKPNTNLEQFIASCKALTKLSSNNPIIFNELLELLKNKSEEDSTGPKKIAPSINKRKKFKIQLDLDDNEDELDSPVQKKPAPTRTLFKRIDKLKAKQLRQYSPTVKDPSPNSEQQTQNGHAETKDYEPTRSEVVEEDREWYDNDDDYGNLVPEPLSELPEEAKLLPVIRNIDNDDALRNTVQLYPIPLKQRMEWIPPFLSKFALENKVPTSIIIGSISETSSQVSALSMVNPFRNPDSEFSANAKRGSKLVALRRINMEHIQQSRDNTTVLNTAMGEVLGLENNNKAKDKSNQKICDDTALFTPSKDDIKHTKEQLPVFRCRSQLLSLIRENQVVVIIGETGSGKTTQLAQYLYEEGYANDRGKSIVVTQPRRVAAISVAKRVAMEMQVPLGKEVGYSIRFEDVTDSECTKLKFVTDGILLRETLLDDTLDKYSCVIIDEAHERSLNTDILLGFFKILLARRRDLKLIITSATMNAKKFSAFFGNAPQFTIPGRTFPVQTIYTSNPVQDYVEAAVSQAVKIHLANDCSSGDILIFMTGQEDIETTFDTLQEKFLQVYSKKFGTANFEEINDIEILPIYSALPADLQFKIFQDLHGTKRKIIIATNIAETSLTIKGIRYVIDCGYSKLKVYNPKIGLDSLVITPISKANADQRSGRAGRTAPGTAYRLYTEDTFKEDMYLQTIPEIQRTNLSNTLLLLKSLDVTDELSKFPFIDKPPLQTFLSSLYELWFIGAIDTSGQLTPLGLQMAKFPLQPSLSKILLIAVRNGCSDEMLTIVSMLSVPQVFYRPKERQKEADIARNKFFIAKSDHLTLLNVFEQWRANNFSSHWCNKHFVQYKSLVRARDIRDQLLTILKSQKIPVISSGKDWDIIKKCICSGFAHQAAKITGLRNYVHLKTGVSVQLHPTSALHGLGDLPPYVVYHELLMTSKEYICCVTSVDPFWLMEYGGLLYDIKRIKNDQEATTTGLFGEHYEHTLDKVEDDIDINIRRCKDMRDSVIQELKMTDNSNKEDKKQKTKKQNILNGKENSMKPFKRRKPFF
chain 2: MTEHETKDKAKKIREIYRYDEMSNKVLKVDKRFMNTSQNPQRDAEISQPKSMSGRISAKDMGQGLCNNINKGLKENDVAVEKTGKSASLKKIQQHNTILNSSSDFRLHYYPKDPSNVETYEQILQWVTEVLGNDIPHDLIIGTADIFIRQLKENEENEDGNIEERKEKIQHELGINIDSLKFNELVKLMKNITDYETHPDNSNKQAVAILADDEKSDEEEVTEMSNNANVLGGEINDNEDDDEEYDYNDVEVNSKKKNKRALPNIENDIIKLSDSKTSNIESVPIYSIDEFFLQRKLRSELGYKDTSVIQDLSEKILNDIETLEHNPVALEQKLVDLLKFENISLAEFILKNRSTIFWGIRLAKSTENEIPNLIEKMVAKGLNDLVEQYKFRETTHSKRELDSGDDQPQSSEAKRTKFSNPAIPPVIDLEKIKFDESSKLMTVTKVSLPEGSFKRVKPQYDEIHIPAPSKPVIDYELKEITSLPDWCQEAFPSSETTSLNPIQSKVFHAAFEGDSNMLICAPTGSGKTNIALLTVLKALSHHYNPKTKKLNLSAFKIVYIAPLKALVQEQVREFQRRLAFLGIKVAELTGDSRLSRKQIDETQVLVSTPEKWDITTRNSNNLAIVELVRLLIIDEIHLLHDDRGPVLESIVARTFWASKYGQEYPRIIGLSATLPNYEDVGRFLRVPKEGLFYFDSSFRPCPLSQQFCGIKERNSLKKLKAMNDACYEKVLESINEGNQIIVFVHSRKETSRTATWLKNKFAEENITHKLTKNDAGSKQILKTEAANVLDPSLRKLIESGIGTHHAGLTRSDRSLSEDLFADGLLQVLVCTATLAWGVNLPAHTVIIKGTDVYSPEKGSWEQLSPQDVLQMLGRAGRPRYDTFGEGIIITDQSNVQYYLSVLNQQLPIESQFVSKLVDNLNAEVVAGNIKCRNDAVNWLAYTYLYVRMLASPMLYKVPDISSDGQLKKFRESLVHSALCILKEQELVLYDAENDVIEATDLGNIASSFYINHASMDVYNRELDEHTTQIDLFRIFSMSEEFKYVSVRYEEKRELKQLLEKAPIPIREDIDDPLAKVNVLLQSYFSQLKFEGFALNSDIVFIHQNAGRLLRAMFEICLKRGWGHPTRMLLNLCKSATTKMWPTNCPLRQFKTCPVEVIKRLEASTVPWGDYLQLETPAEVGRAIRSEKYGKQVYDLLKRFPKMSVTCNAQPITRSVMRFNIEIIADWIWDMNVHGSLEPFLLMLEDTDGDSILYYDVLFITPDIVGHEFTLSFTYELKQHNQNNLPPNFFLTLISENWWHSEFEIPVSFNGFKLPKKFPPPTPLLENISISTSELGNDDFSEVFEFKTFNKIQSQVFESLYNSNDSVFVGSGKGTGKTAMAELALLNHWRQNKGRAVYINPSGEKIDFLLSDWNKRFSHLAGGKIINKLGNDPSLNLKLLAKSHVLLATPVQFELLSRRWRQRKNIQSLELMIYDDAHEISQGVYGAVYETLISRMIFIATQLEKKIRFVCLSNCLANARDFGEWAGMTKSNIYNFSPSERIEPLEINIQSFKDVEHISFNFSMLQMAFEASAAAAGNRNSSSVFLPSRKDCMEVASAFMKFSKAIEWDMLNVEEEQIVPYIEKLTDGHLRAPLKHGVGILYKGMASNDERIVKRLYEYGAVSVLLISKDCSAFACKTDEVIILGTNLYDGAEHKYMPYTINELLEMVGLASGNDSMAGKVLILTSHNMKAYYKKFLIEPLPTESYLQYIIHDTLNNEIANSIIQSKQDCVDWFTYSYFYRRIHVNPSYYGVRDTSPHGISVFLSNLVETCLNDLVESSFIEIDDTEAEVTAEVNGGDDEATEIISTLSNGLIASHYGVSFFTIQSFVSSLSNTSTLKNMLYVLSTAVEFESVPLRKGDRALLVKLSKRLPLRFPEHTSSGSVSFKVFLLLQAYFSRLELPVDFQNDLKDILEKVVPLINVVVDILSANGYLNATTAMDLAQMLIQGVWDVDNPLRQIPHFNNKILEKCKEINVETVYDIMALEDEERDEILTLTDSQLAQVAAFVNNYPNVELTYSLNNSDSLISGVKQKITIQLTRDVEPENLQVTSEKYPFDKLESWWLVLGEVSKKELYAIKKVTLNKETQQYELEFDTPTSGKHNLTIWCVCDSYLDADKELSFEINVK

# Variants of: B1
# ASSAY EXPLANATION: Y2H interaction assay; growth on -LWH medium with 3-AT; parent: 50 nM
REPORTED PROPERTY: screen value (mM)

1: chain 1 L335F
2: chain 1 R686I
Field: lower screen value | Options: 1 / 2 # respond with the chosen item's label
2
(2: 0 mM, 1: 50 mM)
